molecular target: human recombinant AChE (Homo sapiens); construct: purchased Aldrich (Milan, Italy); assay: biochemical; conditions: read-out: hAChE % inhibition at 10 μM ± SD; 10 μM inhibitor, human recombinant AChE, n = 3
Sequence (P22303 32-614): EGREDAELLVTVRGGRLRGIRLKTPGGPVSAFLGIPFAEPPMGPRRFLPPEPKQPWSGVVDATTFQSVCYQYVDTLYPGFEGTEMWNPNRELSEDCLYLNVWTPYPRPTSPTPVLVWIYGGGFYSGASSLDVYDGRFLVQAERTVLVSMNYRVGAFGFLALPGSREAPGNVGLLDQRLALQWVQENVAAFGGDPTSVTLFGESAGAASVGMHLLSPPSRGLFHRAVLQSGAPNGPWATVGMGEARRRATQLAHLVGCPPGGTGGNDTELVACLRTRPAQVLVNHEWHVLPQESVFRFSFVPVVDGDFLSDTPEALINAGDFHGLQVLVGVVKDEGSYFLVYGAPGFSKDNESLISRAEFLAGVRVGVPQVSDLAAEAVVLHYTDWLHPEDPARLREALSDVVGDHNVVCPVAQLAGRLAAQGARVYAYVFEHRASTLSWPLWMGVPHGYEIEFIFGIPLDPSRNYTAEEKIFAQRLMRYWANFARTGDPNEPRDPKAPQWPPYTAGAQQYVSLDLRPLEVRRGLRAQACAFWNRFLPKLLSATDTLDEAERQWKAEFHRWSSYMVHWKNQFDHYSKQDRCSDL

>  <compound>
COc1ccccc1N1CCN(CCCOc2cc(C)cc3oc(=O)cc(C)c23)CC1 [Compound 1]

>  <targetUnderTest>
human recombinant AChE (Homo sapiens)

>  <inhibition at 10 µM / %>
61

$$$$
>  <compound>
COc1ccccc1N1CCN(CCCOc2ccc3c(C)cc(=O)oc3c2C(C)=O)CC1 [Compound 9]

>  <targetUnderTest>
human recombinant AChE (Homo sapiens)

>  <inhibition at 10 µM / %>
59

$$$$
>  <compound>
COc1cccc(N2CCN(CCCOc3c(C(C)=O)c(C)cc4oc(=O)cc(C)c34)CC2)c1 [Compound 7]

>  <targetUnderTest>
human recombinant AChE (Homo sapiens)

>  <inhibition at 10 µM / %>
46

$$$$
>  <compound>
COc1ccccc1N1CCN(CCCCOc2c(C(C)=O)c(C)cc3oc(=O)cc(C)c23)CC1 [Compound 6]

>  <targetUnderTest>
human recombinant AChE (Homo sapiens)

>  <inhibition at 10 µM / %>
48

$$$$
>  <compound>
COc1ccccc1N1CCN(CCCCOc2cc(C)cc3oc(=O)cc(C)c23)CC1 [Compound 2]

>  <targetUnderTest>
human recombinant AChE (Homo sapiens)

>  <inhibition at 10 µM / %>
61

$$$$
>  <compound>
COc1cccc(N2CCN(CCCCOc3cc(C)cc4oc(=O)cc(C)c34)CC2)c1 [Compound 4]

>  <targetUnderTest>
human recombinant AChE (Homo sapiens)

>  <inhibition at 10 µM / %>
56

$$$$
>  <compound>
COc1ccccc1N1CCN(CCCOc2c(C(C)=O)c(C)cc3oc(=O)cc(C)c23)CC1 [Compound 5]

>  <targetUnderTest>
human recombinant AChE (Homo sapiens)

>  <inhibition at 10 µM / %>
50

$$$$
>  <compound>
COc1cccc(N2CCN(CCCOc3cc(C)cc4oc(=O)cc(C)c34)CC2)c1 [Compound 3]

>  <targetUnderTest>
human recombinant AChE (Homo sapiens)

>  <inhibition at 10 µM / %>
53

$$$$
>  <compound>
COc1cccc(N2CCN(CCCCOc3c(C(C)=O)c(C)cc4oc(=O)cc(C)c34)CC2)c1 [Compound 8]

>  <targetUnderTest>
human recombinant AChE (Homo sapiens)

>  <inhibition at 10 µM / %>
54

$$$$

====

Biological target: hMAO-A (Homo sapiens, UniProt P21397)
Construct: purchased Aldrich (Milan, Italy)
Sequence (P21397 1-527): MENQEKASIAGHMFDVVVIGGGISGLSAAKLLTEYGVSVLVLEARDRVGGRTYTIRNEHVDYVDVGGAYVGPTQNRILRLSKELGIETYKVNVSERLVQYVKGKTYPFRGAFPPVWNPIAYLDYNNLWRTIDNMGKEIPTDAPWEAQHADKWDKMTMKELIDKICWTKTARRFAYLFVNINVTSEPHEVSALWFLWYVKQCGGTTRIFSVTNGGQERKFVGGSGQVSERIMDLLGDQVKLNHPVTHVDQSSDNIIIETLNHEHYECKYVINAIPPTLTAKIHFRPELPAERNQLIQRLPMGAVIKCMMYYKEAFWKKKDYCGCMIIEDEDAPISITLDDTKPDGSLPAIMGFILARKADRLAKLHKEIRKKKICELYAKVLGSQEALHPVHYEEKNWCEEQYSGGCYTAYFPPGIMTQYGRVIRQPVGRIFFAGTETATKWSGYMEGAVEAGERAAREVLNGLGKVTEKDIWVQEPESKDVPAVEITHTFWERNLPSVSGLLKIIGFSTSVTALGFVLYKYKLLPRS
Assay: biochemical
Conditions: read-out: hMAO-A % inhibition at 10 μM ± SD; 10 μM inhibitor, human recombinant MAO-A, n = 3
Answer rule not met if inhibition at 10 µM is under 40%, and rule met if it is 40% or more.

>  <compound>
COc1ccccc1N1CCN(CCCOc2c(C(C)=O)c(C)cc3oc(=O)cc(C)c23)CC1 [Compound 5]

>  <group>
rule not met

$$$$
>  <compound>
COc1ccccc1N1CCN(CCCCOc2ccc3c(C)cc(=O)oc3c2C(C)=O)CC1 [Compound 10]

>  <group>
rule met

$$$$
>  <compound>
COc1ccccc1N1CCN(CCCCOc2cc(C)cc3oc(=O)cc(C)c23)CC1 [Compound 2]

>  <group>
rule not met

$$$$
>  <compound>
COc1ccccc1N1CCN(CCCOc2cc(C)cc3oc(=O)cc(C)c23)CC1 [Compound 1]

>  <group>
rule met

$$$$
>  <compound>
COc1cccc(N2CCN(CCCCOc3cc(C)cc4oc(=O)cc(C)c34)CC2)c1 [Compound 4]

>  <group>
rule not met

$$$$
